assayDetails: Pharmacokinetics of ketamine and its metabolite hydroxynorketamine in mouse serum, hippocampus and frontal cortex (noncompartmental analysis, LC-MS/MS)
Assay type: in vivo, C57BL/6J mice
assayContext: male, C57BL/6J, mouse, serum, ip, 10 mg/kg, serum; Control mice; ketamine 10 mg/kg i.p.; read-out: λz (converted)
measuredQuantity: k el (s⁻¹)
I only need the number, in s⁻¹, no unit after it.

What k el value was documented for this compound, CNC1(c2ccccc2Cl)CCCCC1=O (stereo not shown) ?
0.000317

* * *

assayDetails: Pharmacokinetics of ketamine and its metabolite hydroxynorketamine in mouse serum, hippocampus and frontal cortex (noncompartmental analysis, LC-MS/MS)
Assay type: in vivo, C57BL/6J mice
assayContext: male, C57BL/6J, mouse, frontal cortex, ip, 10 mg/kg, frontal cortex; CRS mice; ketamine 10 mg/kg i.p.; read-out: MRT (converted)
measuredQuantity: MRT (min)
Give just the number in min; leave the unit off.

Look at this compound and give its reported MRT. CNC1(c2ccccc2Cl)CCCCC1=O (stereo not shown)
28.4

* * *

assayDetails: Pharmacokinetics of ketamine and its metabolite hydroxynorketamine in mouse serum, hippocampus and frontal cortex (noncompartmental analysis, LC-MS/MS)
Type: in vivo, C57BL/6J mice
assayContext: male, C57BL/6J, mouse, hippocampus, ip, 10 mg/kg, hippocampus; CRS + ZnD mice; ketamine 10 mg/kg i.p.; read-out: Cmax
measuredQuantity: Cmax
Write the numeric value and append its unit.

Could you share which Cmax value was measured for CNC1(c2ccccc2Cl)CCCCC1=O (stereo not shown) [Ketamine, ketamine] ?
2310 ng/g

* * *

assayDetails: Pharmacokinetics of ketamine and its metabolite hydroxynorketamine in mouse serum, hippocampus and frontal cortex (noncompartmental analysis, LC-MS/MS)
Format: in vivo, C57BL/6J mice
assayContext: male, C57BL/6J, mouse, serum, ip, 10 mg/kg, serum; Control mice; ketamine 10 mg/kg i.p.; read-out: Cmax
measuredQuantity: Cmax (ng/mL)
Record the value in ng/mL, omitting the unit from your answer.

Which value of Cmax has been reported for CNC1(c2ccccc2Cl)CCCCC1=O (stereo not shown) in the records?
1130

* * *

assayDetails: Pharmacokinetics of ketamine and its metabolite hydroxynorketamine in mouse serum, hippocampus and frontal cortex (noncompartmental analysis, LC-MS/MS)
Format: in vivo, C57BL/6J mice
assayContext: male, C57BL/6J, mouse, frontal cortex, ip, 10 mg/kg, frontal cortex; Control mice; ketamine 10 mg/kg i.p.; read-out: MRT (converted)
measuredQuantity: MRT (min)
Expressed in min, but write only the number.

Give its MRT value. Item: CNC1(c2ccccc2Cl)CCCCC1=O (stereo not shown)
30.1
